// data source = patent US20220119513A1

Target: TGFβ1 (R&D Systems)
Sequence (P01137 279-390): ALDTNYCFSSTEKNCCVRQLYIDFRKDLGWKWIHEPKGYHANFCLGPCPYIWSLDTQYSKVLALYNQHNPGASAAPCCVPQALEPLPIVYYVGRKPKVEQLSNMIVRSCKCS
Assay: cell-based or functional assay
Reported CMVIC pSmad-3, IC50 values for a set of binders
The answer is to be given in nM; state only the numeric part.

INSERT INTO measurements (binder, meas_value) VALUES
  ('Can-SL501-VH3 Y111L / Can-SL501-VL2 (antibody, V domains shown) VH: EVQLVESGGDLVKPGGSLRLSCVASGFTFSSYGMHWVRQAPGKELEWVAVISYDGSIKYYADAVKGRFTISRDNAKNTLYLQMNSLRAEDTAVYYCARTGEYSGYDTDPQLSWGQGTTVTVSS VL: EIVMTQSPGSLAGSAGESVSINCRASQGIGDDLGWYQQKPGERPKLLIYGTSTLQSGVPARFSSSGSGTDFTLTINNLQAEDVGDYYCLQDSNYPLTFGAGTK', 32.6);

Now consider a different binder.
Ask: Item under review: Can-SL501-VH3 D108K / Can-SL501-VL2 (antibody, V domains shown) VH: EVQLVESGGDLVKPGGSLRLSCVASGFTFSSYGMHWVRQAPGKELEWVAVISYDGSIKYYADAVKGRFTISRDNAKNTLYLQMNSLRAEDTAVYYCARTGEYSGYDTKPQYSWGQGTTVTVSS VL: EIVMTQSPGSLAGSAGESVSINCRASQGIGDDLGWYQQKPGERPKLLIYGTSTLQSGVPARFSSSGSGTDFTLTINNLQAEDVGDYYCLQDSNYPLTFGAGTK . Reported CMVIC pSmad-3, IC50?
Result: 10.9
